Data origin, for the record: patent US20150105252A1

# Tested on: lambsquarters
# assay method text: Test C postemergence
# Type: in vivo, Chenopodium album
# test context: postemergence; 125 g ai/ha; scale 0 to 100, 0 no effect, 100 complete control
Recorded Plant response rating, Lambsquarters values for a group of molecules are listed next.
Give a plain numeric answer without units written out.

Solved entries (count: 5):
smiles data: CCc1cc(C(=O)NCC(F)(F)F)nn1Cc1cc(C(F)(F)F)nn1C
Plant response rating, Lambsquarters: 80
//
smiles data: CCc1cc(C(=O)NOC(C)C)nn1Cc1cccc(OC(F)(F)F)c1
Plant response rating, Lambsquarters: 95
//
smiles data: CCc1cc(C(=O)NCC(F)(F)F)nn1Cc1nc(C(F)(F)F)nn1C
Plant response rating, Lambsquarters: 70
//
smiles data: CCCNC(=O)c1cc(CC)n(Cc2cccc(OC(F)(F)F)c2)n1
Plant response rating, Lambsquarters: 50
//
smiles data: CCCc1cc(C(=O)NC2CC2)nn1Cc1ccnc(OC(F)F)c1
Plant response rating, Lambsquarters: 90

Look up Plant response rating, Lambsquarters: `CCOc1cc(C(=O)NCC(F)(F)F)nn1Cc1ccnc(OC(F)F)c1`
95

Which Plant response rating, Lambsquarters value belongs to `CCc1cc(C(=O)NCC(F)(F)F)nn1Cc1cccc(OC(F)(F)F)c1` ?
65

Give the measured Plant response rating, Lambsquarters of `CCNC(=O)c1cc(CC)n(Cc2cc(C(F)(F)F)nn2C)n1` .
75

# query: Plant response rating, Lambsquarters of entry `CCONC(=O)c1cc(CC)n(Cc2ccnc(C(F)(F)F)c2)n1`
70

Entry `CCCNC(=O)c1cc(OCC)n(Cc2ccnc(OC(F)F)c2)n1` : reported Plant response rating, Lambsquarters = ?
98

Which Plant response rating, Lambsquarters is listed for `CCCc1cc(C(=O)NCC(F)(F)F)nn1Cc1ccnc(OC(F)F)c1` ?
85

* * *

# System: mustard, wild
# assay method text: Test D preemergence
# Format: in vivo, Sinapis arvensis
# test context: Preemergence, 62 g ai/ha; scale 0 to 100
property name: Plant response rating, Mustard, Wild
Respond numerically, and do not add a unit to the figure.

Illustrative cases are given below, each with its answer.
smiles data: CCc1cc(C(=O)NCC(F)(F)F)nn1Cc1ccnc(SC(F)(F)F)c1
property name: Plant response rating, Mustard, Wild
recorded result: 100
//
smiles data: CCc1cc(C(=O)NOC(C)C)nn1Cc1cccc(OC(F)(F)F)c1
property name: Plant response rating, Mustard, Wild
recorded result: 100

Which Plant response rating, Mustard, Wild value is on record for `O=C(NC1CC1)c1cc(CCF)n(Cc2ccnc(C(F)(F)F)c2)n1` ?
90

Look up Plant response rating, Mustard, Wild: `CCCc1cc(C(=O)NC2CC2)nn1Cc1cc(C(F)(F)F)nn1C`
100

* * *

# System: wheat
# assay method text: Test A preemergence
# Format: in vivo, Triticum aestivum
# test context: preemergence, 125 g ai/ha, visual injury approx. 10 days after treatment
property name: Wheat plant response rating (0 to 100 scale)
// print number alone

// solved cases for Wheat plant response rating (0 to 100 scale) follow
smiles data: CCCCc1cc(C(=O)NOCC)nn1Cc1ccnc(C(F)(F)F)c1
recorded result: 0
//
smiles data: CCc1cc(C(=O)NC2CC2)nn1Cc1nnc(C(F)(F)F)o1
recorded result: 0
//
smiles data: CCCNC(=O)c1cc(CC)n(Oc2cccc(C(F)(F)F)c2)n1
recorded result: 0

Moving on to the next compound.
Fill blank: measured Wheat plant response rating (0 to 100 scale) of the compound `CCCc1cc(C(=O)NC(C)C)nn1Cc1cc(C(F)(F)F)nn1C` is ____.
80

* * *

Soybean plant response rating values for the compounds below.
# System: soybean
# assay method text: Test C preemergence
# Type: in vivo, Glycine max
# test context: preemergence, 31 g ai/ha; visual rating, scale 0 to 100 (0 no effect, 100 complete control), 13 to 15 days
Answer using only a numeral; do not append any unit.

Consider the reported Soybean plant response rating for these compounds:
smiles data: CCONC(=O)c1cc(CC)n(Cc2ccnc(OC(F)F)c2)n1
Soybean plant response rating: 30

smiles data: CCc1cc(C(=O)NCC(F)(F)F)nn1Cc1nc(C(F)(F)F)nn1C
Soybean plant response rating: 15

smiles data: CCCc1cc(C(=O)NCC(F)(F)F)nn1Cc1ccnc(OC(F)F)c1
Soybean plant response rating: 30

smiles data: CCCNC(=O)c1cc(OCC)n(Cc2ccnc(C(F)(F)F)c2)n1
Soybean plant response rating: 85

smiles data: CCCc1cc(C(=O)NOC(C)C)nn1Cc1cc(C(F)(F)F)nn1C
Soybean plant response rating: 5

smiles data: CCCc1cc(C(=O)NC(C)C)nn1Cc1cc(C(F)(F)F)nn1C
Soybean plant response rating: 70

Okay, now this compound:
Item `O=C(NC1CC1)c1cc(CCF)n(Cc2ccnc(C(F)(F)F)c2)n1` has what recorded Soybean plant response rating?
30

* * *

# Tested on: lambsquarters
# assay method text: Test C postemergence
# Assay type: in vivo, Chenopodium album
# test context: postemergence, 62 g ai/ha; scale 0 to 100
// Not met strictly below 80 in Lambsquarters plant response rating; Met otherwise

Field: example entries. Status: answers known.
smiles data: CCc1cc(C(=O)NCC(F)(F)F)nn1Cc1ccnc(SC(F)(F)F)c1
target system: lambsquarters
group: Not met
//
smiles data: CCc1cc(C(=O)NC2CC2)nn1Cc1ccnc(C(F)(F)F)c1
target system: lambsquarters
group: Not met
//
smiles data: CCNC(=O)c1cc(CC)n(Cc2cc(C(F)(F)F)nn2C)n1
target system: lambsquarters
group: Not met
//
smiles data: CCONC(=O)c1cc(CC)n(Cc2ccnc(C(F)(F)F)c2)n1
target system: lambsquarters
group: Not met
//
smiles data: CCCc1cc(C(=O)NC2CC2)nn1Cc1ccnc(OC(F)F)c1
target system: lambsquarters
group: Met

Quick check: does `Cc1cc(C(=O)NCC(F)(F)F)nn1Cc1ccnc(C(F)(F)F)c1` have Lambsquarters plant response rating greater than or equal to 80?
Not met

* * *

# Test system: common ragweed
# assay method text: Test A preemergence
# Assay type: in vivo, Ambrosia elation
# test context: 500 g ai/ha, visual injury after approx. 10 days, 0 to 100 scale (0 no effect, 100 complete control)
# Excerpt: […]
property name: Common Ragweed plant response rating

Solved entries (count: 3):
smiles data: CCc1cc(C(=O)NOC(C)C)nn1Cc1ccnc(OC(F)F)c1
Common Ragweed plant response rating: 100
--
smiles data: CCOc1cc(C(=O)NCC(F)(F)F)nn1Cc1ccnc(OC(F)F)c1
Common Ragweed plant response rating: 90
--
smiles data: CCc1cc(C(=O)NC2CC2)nn1Cc1cc(OC(F)F)nn1C
Common Ragweed plant response rating: 40

Report Common Ragweed plant response rating for `CCONC(=O)c1cc(CC)n(Cc2cc(C(F)(F)F)nn2C(C)C)n1` tested on common ragweed.
10

Provide the documented Common Ragweed plant response rating with common ragweed as the system for `CCc1cc(C(=O)NC2CC2)nn1Cc1cc(C(F)(F)F)no1`
40

* * *

# Test system: soybean
# assay method text: Test C preemergence
# Format: in vivo, Glycine max
# test context: preemergence, 125 g ai/ha; 13 to 15 days; scale 0 to 100, 0 = no effect, 100 = complete control
Each item that follows carries a reported Plant response rating, Soybean.
Reply briefly: the number, and no unit.

For orientation, consider the following solved cases.
smiles data: CCc1cc(C(=O)NC2CC2)nn1Cc1ccnc(Br)c1
target system: soybean
Plant response rating, Soybean: 35

smiles data: CCNC(=O)c1cc(CCF)n(Cc2ccnc(C(F)(F)F)c2)n1
target system: soybean
Plant response rating, Soybean: 75

smiles data: O=C(NC1CC1)c1cc(CCF)n(Cc2ccnc(C(F)(F)F)c2)n1
target system: soybean
Plant response rating, Soybean: 98

# lookup: Plant response rating, Soybean of `CCOc1cc(C(=O)NCC(F)(F)F)nn1Cc1ccnc(OC(F)F)c1`
80

* * *

# Tested on: galium
# assay method text: Test C preemergence
# Assay type: in vivo, Galium aparine
# test context: preemergence, 31 g ai/ha; visual rating, scale 0 to 100 (0 no effect, 100 complete control), 13 to 15 days
Label satisfied when Galium plant response rating is at or above 60; anything below gets not satisfied.

Below, 6 compounds whose answers are already recorded.
smiles data: CCc1cc(C(=O)NOC(C)C)nn1Cc1ccnc(OC(F)F)c1
target system: galium
group: satisfied

smiles data: CCOc1cc(C(=O)NOC(C)C)nn1Cc1ccnc(C(F)(F)F)c1
target system: galium
group: not satisfied

smiles data: CCCNC(=O)c1cc(OCC)n(Cc2ccnc(OC(F)F)c2)n1
target system: galium
group: satisfied

smiles data: CCCc1cc(C(=O)NCC(F)(F)F)nn1Cc1ccnc(OC(F)F)c1
target system: galium
group: satisfied

smiles data: O=C(NCC(F)(F)F)c1cc(CCF)n(Cc2ccnc(C(F)(F)F)c2)n1
target system: galium
group: satisfied

smiles data: CCONC(=O)c1cc(CC)n(Cc2ccnc(OC(F)F)c2)n1
target system: galium
group: not satisfied

With those in mind, consider the next compound.
Please check the record `CCCc1cc(C(=O)NC(C)C)nn1Cc1ccnc(C(F)(F)F)c1` and state if its Galium plant response rating is at or above 60.
not satisfied
